experimental-system: Histone deacetylase HD1B (Zea mays, UniProt Q9ZTP8)
Sequence (Q9ZTP8 whole entry): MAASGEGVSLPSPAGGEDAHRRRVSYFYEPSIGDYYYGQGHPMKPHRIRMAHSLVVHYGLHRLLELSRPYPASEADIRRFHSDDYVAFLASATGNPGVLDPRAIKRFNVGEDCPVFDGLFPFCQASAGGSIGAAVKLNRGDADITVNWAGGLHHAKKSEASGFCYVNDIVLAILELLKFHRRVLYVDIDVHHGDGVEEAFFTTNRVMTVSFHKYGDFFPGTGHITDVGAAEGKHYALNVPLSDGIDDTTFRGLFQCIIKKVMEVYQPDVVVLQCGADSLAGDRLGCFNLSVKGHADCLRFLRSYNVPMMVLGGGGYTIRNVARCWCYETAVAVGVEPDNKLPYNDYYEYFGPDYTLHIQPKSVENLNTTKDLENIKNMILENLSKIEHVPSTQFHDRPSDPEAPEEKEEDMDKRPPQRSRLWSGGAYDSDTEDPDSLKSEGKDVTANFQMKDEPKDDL
experimental-protocol: Inhibition of maize histone deacetylase 1B
study-conditions: read-out: IC50
readout: IC50 (µM)

1: Cn1cc(/C=C/C(=O)c2ccccc2F)cc1/C=C/C(=O)NO
2: Cn1cc(/C=C/C(=O)c2ccc(-c3ccccc3)cc2)cc1/C=C/C(=O)NO
3: Cn1cc(/C=C/C(=O)c2cc(F)ccc2F)cc1/C=C/C(=O)NO
4: Cn1cc(/C=C/C(=O)c2ccccc2)cc1/C=C/C(=O)NO
*Q* Sequence the entries by IC50, beginning with the highest number. Labels, requested order.
*A* 2, 3, 1, 4
(2: 31.8 µM, 3: 16.6 µM, 1: 3.4 µM, 4: 0.26 µM)
